- tested.on: wild-type HIV-1 PR (Human immunodeficiency virus type 1 group M subtype B, UniProt P04585)
Record form. Attribute: IC50. Fill in for each entry.
Number only, in nM; omit the unit.

Request: Input CN1CCC[C@H](C(=O)N[C@@H](Cc2ccccc2)[C@H](O)CN(C2CC2)S(=O)(=O)c2ccc(C(F)(F)F)cc2)C1 [25b] , output reported IC50.
Result: 110

Request: Input Nc1ccc(S(=O)(=O)N(C[C@@H](O)[C@H](Cc2ccccc2)NC(=O)CN2CCCCC2)C2CC2)cc1 [27d] , output reported IC50.
Result: 34.7

Request: Input COc1ccc(S(=O)(=O)N(C[C@@H](O)[C@H](Cc2ccccc2)NC(=O)[C@@H]2CCCN(C)C2)C2CC2)cc1 [24a] , output reported IC50.
Result: 8.07

Request: Input O=C(CN1CCCCC1)N[C@@H](Cc1ccccc1)[C@H](O)CN(C1CC1)S(=O)(=O)c1ccc(C(F)(F)F)cc1 [27b] , output reported IC50.
Result: 52.7

Request: Input O=C(N[C@@H](Cc1ccccc1)[C@H](O)CN(C1CC1)S(=O)(=O)c1ccc([N+](=O)[O-])cc1)C1CCNCC1 [26c] , output reported IC50.
Result: 268

Request: Input Nc1ccc(S(=O)(=O)N(C[C@@H](O)[C@H](Cc2ccccc2)NC(=O)C2CCNCC2)C2CC2)cc1 [26d] , output reported IC50.
Result: 245

Request: Input O=C(N[C@@H](Cc1ccccc1)[C@H](O)CN(C1CC1)S(=O)(=O)c1ccc(C(F)(F)F)cc1)C1CCNCC1 [26b] , output reported IC50.
Result: 124

====

property.measured: IC50 (nM)
Number only, in nM; omit the unit.

Request: Given CN1CCC[C@@H](C(=O)N[C@@H](Cc2ccccc2)[C@H](O)CN(C2CC2)S(=O)(=O)c2ccc(C(F)(F)F)cc2)C1 [24b] , report its IC50 on wild-type HIV-1 PR (Human immunodeficiency virus type 1 group M subtype B, UniProt P04585).
Result: 9.28

Request: Given CN1CCC[C@H](C(=O)N[C@@H](Cc2ccccc2)[C@H](O)CN(C2CC2)S(=O)(=O)c2ccc(N)cc2)C1 [25d] , report its IC50 on wild-type HIV-1 PR (Human immunodeficiency virus type 1 group M subtype B, UniProt P04585).
Result: 236

Request: Given CN1CCC[C@H](C(=O)N[C@@H](Cc2ccccc2)[C@H](O)CN(C2CC2)S(=O)(=O)c2ccc([N+](=O)[O-])cc2)C1 [25c] , report its IC50 on wild-type HIV-1 PR (Human immunodeficiency virus type 1 group M subtype B, UniProt P04585).
Result: 523

Request: Given O=C(CN1CCCCC1)N[C@@H](Cc1ccccc1)[C@H](O)CN(C1CC1)S(=O)(=O)c1ccc([N+](=O)[O-])cc1 [27c] , report its IC50 on wild-type HIV-1 PR (Human immunodeficiency virus type 1 group M subtype B, UniProt P04585).
Result: 288

====

Record form. Attribute: CC50 at 24 h. Fill in for each entry.
- test.description: Cytotoxicity assay (cell counting kit-8)
- Format: cell-based
- protocol.conditions: human; 293T cells, CCK-8, 24h exposure

Request: Input COc1ccc(S(=O)(=O)N(C[C@@H](O)[C@H](Cc2ccccc2)NC(=O)[C@@H]2CCCN(C)C2)C2CC2)cc1 [24a] , output reported CC50 at 24 h.
Result: > 100 µM

Request: Input CN1CCC[C@@H](C(=O)N[C@@H](Cc2ccccc2)[C@H](O)CN(C2CC2)S(=O)(=O)c2ccc(C(F)(F)F)cc2)C1 [24b] , output reported CC50 at 24 h.
Result: > 100 µM

Request: Input O=C(N[C@@H](Cc1ccccc1)[C@H](O)CN(C1CC1)S(=O)(=O)c1ccc([N+](=O)[O-])cc1)[C@@H]1CCCNC1 [22c] , output reported CC50 at 24 h.
Result: > 100 µM

Request: Input O=C(N[C@@H](Cc1ccccc1)[C@H](O)CN(C1CC1)S(=O)(=O)c1ccc(C(F)(F)F)cc1)[C@@H]1CCCNC1 [22b] , output reported CC50 at 24 h.
Result: > 100 µM

Request: Input COc1ccc(S(=O)(=O)N(C[C@@H](O)[C@H](Cc2ccccc2)NC(=O)[C@@H]2CCCNC2)C2CC2)cc1 [22a] , output reported CC50 at 24 h.
Result: > 100 µM

Request: Input CN1CCC[C@@H](C(=O)N[C@@H](Cc2ccccc2)[C@H](O)CN(C2CC2)S(=O)(=O)c2ccc(N)cc2)C1 [24d] , output reported CC50 at 24 h.
Result: > 100 µM

Request: Input Nc1ccc(S(=O)(=O)N(C[C@@H](O)[C@H](Cc2ccccc2)NC(=O)[C@@H]2CCCNC2)C2CC2)cc1 [22d] , output reported CC50 at 24 h.
Result: > 100 µM
